B1: HDV Ribozyme (parent)
chain: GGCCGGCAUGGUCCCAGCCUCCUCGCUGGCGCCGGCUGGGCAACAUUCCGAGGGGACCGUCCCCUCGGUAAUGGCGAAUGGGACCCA

variants of: B1; test: self-cleavage, relative activity (ratio to wild type); higher = more cleavage; co-transcriptional
Measured self-cleavage accompanies every entry in the list below.
readout: self-cleavage

[[record]]
variant_code = "G11C G74C"
readout = "self-cleavage"
reported = 0

[[record]]
variant_code = "G80A C86U"
readout = "self-cleavage"
reported = 0.409

[[record]]
variant_code = "U60G C62G"
readout = "self-cleavage"
reported = 0.703

[[record]]
variant_code = "G10U C36U"
readout = "self-cleavage"
reported = 0.472

[[record]]
variant_code = "G10C C66U"
readout = "self-cleavage"
reported = 0.862

[[record]]
variant_code = "A71C U79G"
readout = "self-cleavage"
reported = 0.437

[[record]]
variant_code = "U20A U37G"
readout = "self-cleavage"
reported = 0.277

